Biological target: Ba/F3 cells containing Ros1 wild-type protein (Homo sapiens, UniProt P08922, cells depend on it, form not given)
Construct: The background only speaks of 'a number of different unrelated proteins' and names SLC34A2-ROS1 for HCC78 cells
Sequence (P08922 whole entry, stated change not applied): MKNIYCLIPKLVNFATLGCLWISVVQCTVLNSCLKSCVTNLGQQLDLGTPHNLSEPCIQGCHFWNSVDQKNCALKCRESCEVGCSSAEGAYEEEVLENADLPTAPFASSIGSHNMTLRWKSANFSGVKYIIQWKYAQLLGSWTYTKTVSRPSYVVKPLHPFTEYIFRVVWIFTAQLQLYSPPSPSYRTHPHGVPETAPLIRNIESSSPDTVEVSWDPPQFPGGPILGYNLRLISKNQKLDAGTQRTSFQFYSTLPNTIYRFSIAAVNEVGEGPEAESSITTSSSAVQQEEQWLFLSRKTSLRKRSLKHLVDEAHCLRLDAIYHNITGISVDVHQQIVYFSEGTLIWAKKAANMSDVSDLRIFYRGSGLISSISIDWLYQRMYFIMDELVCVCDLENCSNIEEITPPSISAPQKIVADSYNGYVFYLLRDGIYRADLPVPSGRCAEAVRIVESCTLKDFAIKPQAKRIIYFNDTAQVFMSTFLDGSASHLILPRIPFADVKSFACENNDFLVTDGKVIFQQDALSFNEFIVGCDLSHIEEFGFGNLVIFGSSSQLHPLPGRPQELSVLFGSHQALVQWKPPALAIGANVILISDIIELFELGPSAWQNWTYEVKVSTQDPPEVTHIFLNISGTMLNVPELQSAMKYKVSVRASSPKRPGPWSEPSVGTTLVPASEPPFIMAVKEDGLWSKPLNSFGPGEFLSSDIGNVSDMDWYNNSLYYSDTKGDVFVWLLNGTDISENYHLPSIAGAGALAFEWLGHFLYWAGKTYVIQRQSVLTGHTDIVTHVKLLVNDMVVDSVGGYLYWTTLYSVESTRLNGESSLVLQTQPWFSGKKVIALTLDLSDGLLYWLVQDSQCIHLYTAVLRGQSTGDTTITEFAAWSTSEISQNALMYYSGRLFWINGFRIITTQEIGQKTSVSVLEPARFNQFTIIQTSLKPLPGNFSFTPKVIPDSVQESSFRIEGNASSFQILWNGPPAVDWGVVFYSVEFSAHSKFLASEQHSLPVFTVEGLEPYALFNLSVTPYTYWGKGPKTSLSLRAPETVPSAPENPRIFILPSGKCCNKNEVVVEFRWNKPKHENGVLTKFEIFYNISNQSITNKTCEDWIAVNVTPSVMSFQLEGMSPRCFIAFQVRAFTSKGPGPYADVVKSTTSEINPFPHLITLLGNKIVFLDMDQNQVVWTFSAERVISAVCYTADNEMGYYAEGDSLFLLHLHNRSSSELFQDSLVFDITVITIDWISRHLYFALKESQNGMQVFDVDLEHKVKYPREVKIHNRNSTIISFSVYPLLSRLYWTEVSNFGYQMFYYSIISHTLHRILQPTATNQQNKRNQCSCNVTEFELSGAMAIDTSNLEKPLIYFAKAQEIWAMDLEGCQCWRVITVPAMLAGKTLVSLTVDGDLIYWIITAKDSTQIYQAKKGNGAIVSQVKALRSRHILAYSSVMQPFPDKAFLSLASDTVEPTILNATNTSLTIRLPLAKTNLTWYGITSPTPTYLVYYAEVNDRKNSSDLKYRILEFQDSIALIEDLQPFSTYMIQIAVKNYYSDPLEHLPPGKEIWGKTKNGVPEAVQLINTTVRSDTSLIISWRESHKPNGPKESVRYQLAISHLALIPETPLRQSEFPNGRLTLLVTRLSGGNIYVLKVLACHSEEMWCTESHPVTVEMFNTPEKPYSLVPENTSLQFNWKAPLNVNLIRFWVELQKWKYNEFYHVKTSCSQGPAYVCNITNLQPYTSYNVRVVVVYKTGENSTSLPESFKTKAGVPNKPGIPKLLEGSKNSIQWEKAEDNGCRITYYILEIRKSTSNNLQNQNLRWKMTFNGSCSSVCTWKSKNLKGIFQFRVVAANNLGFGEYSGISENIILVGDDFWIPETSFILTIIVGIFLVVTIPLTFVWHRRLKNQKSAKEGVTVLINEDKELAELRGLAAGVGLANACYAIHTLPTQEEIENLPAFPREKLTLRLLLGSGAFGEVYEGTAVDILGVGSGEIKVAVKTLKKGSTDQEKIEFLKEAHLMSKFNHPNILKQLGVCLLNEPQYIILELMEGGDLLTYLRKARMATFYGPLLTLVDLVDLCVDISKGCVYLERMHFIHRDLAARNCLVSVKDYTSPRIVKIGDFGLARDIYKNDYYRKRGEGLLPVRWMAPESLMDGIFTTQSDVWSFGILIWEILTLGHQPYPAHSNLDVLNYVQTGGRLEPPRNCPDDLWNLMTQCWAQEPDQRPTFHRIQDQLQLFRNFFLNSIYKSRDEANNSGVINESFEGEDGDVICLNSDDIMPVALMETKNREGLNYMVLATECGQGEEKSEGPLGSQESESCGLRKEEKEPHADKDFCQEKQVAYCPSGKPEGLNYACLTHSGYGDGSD
Assay: Ba/F3-Ros1 cell proliferation assay, wild-type Ros1
Type: cell-based, murine
Conditions: without IL-3
Endpoint: BaF3-ROS1-IL3 pIC50
Give your answer as a number; write no unit.

Compound	Endpoint	Number
CNC(=O)CN1CCn2nc(-c3ccncc3)c(-c3ccc(OCc4ccc(C(C)C)cc4)cc3)c2C1 [Compound 174]	BaF3-ROS1-IL3 pIC50	6.8
CC(C)c1ccc(COc2ccc(-c3c(-c4ccncc4)nn4c3C(=O)N(CC3CCCO3)CC4)cc2)cc1 (stereo not drawn) [Compound 55]	BaF3-ROS1-IL3 pIC50	7.0
COc1cccc(COc2ccc(-c3c(-c4ccncc4)nn4c3C(=O)NCC4)cc2)c1 [Compound 113]	BaF3-ROS1-IL3 pIC50	6.0

State its BaF3-ROS1-IL3 pIC50: CC(C)c1ccc(COc2ccc(-c3c(-c4ccncc4)nn4c3C(=O)NCC4)cc2)cc1CN [Compound 86] 7.2

State its BaF3-ROS1-IL3 pIC50: COc1cc(OCc2ccc(C(C)C)cc2)ccc1-c1c(-c2ccncc2)nn2c1C(=O)NCC2 [Compound 34] 6.6

State its BaF3-ROS1-IL3 pIC50: CC(C)c1cc(F)c(COc2ccc(-c3c(-c4ccncc4)nn4c3C(=O)N(CCO)CC4)cc2)c(F)c1 [Compound 94] 7.0

State its BaF3-ROS1-IL3 pIC50: COc1ccc(COc2ccc(-c3c(-c4ccncc4)nn4c3C(=O)NCC4)cc2)cc1 [Compound 112] 6.8

State its BaF3-ROS1-IL3 pIC50: CC(C)c1ccc(COc2ccc(-c3c(-c4ccncc4)nn4c3C(=O)N(CC(O)CO)CC4)cc2)c(F)c1F (stereo not drawn) [Compound 101] 6.7

State its BaF3-ROS1-IL3 pIC50: CC(C)(C#N)c1ccc(COc2ccc(-c3c(-c4ccncc4)nn4c3C(=O)NCC4)cc2)cc1 [Compound 10] 7.1

State its BaF3-ROS1-IL3 pIC50: COc1ccc(COc2ccc(-c3c(-c4ccncn4)nn4c3C(=O)NCC4)cc2)cc1 [Compound 157] 6.1

State its BaF3-ROS1-IL3 pIC50: CC(C)c1ccc(COc2ccc(-c3c(-c4ccncc4)nn4c3C(=O)N(CCO)CC4)c(F)c2)cc1 [Compound 21] 7.8

---

Biological target: Ros1 enzyme (Homo sapiens, UniProt P08922)
Construct: 0.5 μg/ml Ros1 enzyme
Sequence (P08922 28-2347): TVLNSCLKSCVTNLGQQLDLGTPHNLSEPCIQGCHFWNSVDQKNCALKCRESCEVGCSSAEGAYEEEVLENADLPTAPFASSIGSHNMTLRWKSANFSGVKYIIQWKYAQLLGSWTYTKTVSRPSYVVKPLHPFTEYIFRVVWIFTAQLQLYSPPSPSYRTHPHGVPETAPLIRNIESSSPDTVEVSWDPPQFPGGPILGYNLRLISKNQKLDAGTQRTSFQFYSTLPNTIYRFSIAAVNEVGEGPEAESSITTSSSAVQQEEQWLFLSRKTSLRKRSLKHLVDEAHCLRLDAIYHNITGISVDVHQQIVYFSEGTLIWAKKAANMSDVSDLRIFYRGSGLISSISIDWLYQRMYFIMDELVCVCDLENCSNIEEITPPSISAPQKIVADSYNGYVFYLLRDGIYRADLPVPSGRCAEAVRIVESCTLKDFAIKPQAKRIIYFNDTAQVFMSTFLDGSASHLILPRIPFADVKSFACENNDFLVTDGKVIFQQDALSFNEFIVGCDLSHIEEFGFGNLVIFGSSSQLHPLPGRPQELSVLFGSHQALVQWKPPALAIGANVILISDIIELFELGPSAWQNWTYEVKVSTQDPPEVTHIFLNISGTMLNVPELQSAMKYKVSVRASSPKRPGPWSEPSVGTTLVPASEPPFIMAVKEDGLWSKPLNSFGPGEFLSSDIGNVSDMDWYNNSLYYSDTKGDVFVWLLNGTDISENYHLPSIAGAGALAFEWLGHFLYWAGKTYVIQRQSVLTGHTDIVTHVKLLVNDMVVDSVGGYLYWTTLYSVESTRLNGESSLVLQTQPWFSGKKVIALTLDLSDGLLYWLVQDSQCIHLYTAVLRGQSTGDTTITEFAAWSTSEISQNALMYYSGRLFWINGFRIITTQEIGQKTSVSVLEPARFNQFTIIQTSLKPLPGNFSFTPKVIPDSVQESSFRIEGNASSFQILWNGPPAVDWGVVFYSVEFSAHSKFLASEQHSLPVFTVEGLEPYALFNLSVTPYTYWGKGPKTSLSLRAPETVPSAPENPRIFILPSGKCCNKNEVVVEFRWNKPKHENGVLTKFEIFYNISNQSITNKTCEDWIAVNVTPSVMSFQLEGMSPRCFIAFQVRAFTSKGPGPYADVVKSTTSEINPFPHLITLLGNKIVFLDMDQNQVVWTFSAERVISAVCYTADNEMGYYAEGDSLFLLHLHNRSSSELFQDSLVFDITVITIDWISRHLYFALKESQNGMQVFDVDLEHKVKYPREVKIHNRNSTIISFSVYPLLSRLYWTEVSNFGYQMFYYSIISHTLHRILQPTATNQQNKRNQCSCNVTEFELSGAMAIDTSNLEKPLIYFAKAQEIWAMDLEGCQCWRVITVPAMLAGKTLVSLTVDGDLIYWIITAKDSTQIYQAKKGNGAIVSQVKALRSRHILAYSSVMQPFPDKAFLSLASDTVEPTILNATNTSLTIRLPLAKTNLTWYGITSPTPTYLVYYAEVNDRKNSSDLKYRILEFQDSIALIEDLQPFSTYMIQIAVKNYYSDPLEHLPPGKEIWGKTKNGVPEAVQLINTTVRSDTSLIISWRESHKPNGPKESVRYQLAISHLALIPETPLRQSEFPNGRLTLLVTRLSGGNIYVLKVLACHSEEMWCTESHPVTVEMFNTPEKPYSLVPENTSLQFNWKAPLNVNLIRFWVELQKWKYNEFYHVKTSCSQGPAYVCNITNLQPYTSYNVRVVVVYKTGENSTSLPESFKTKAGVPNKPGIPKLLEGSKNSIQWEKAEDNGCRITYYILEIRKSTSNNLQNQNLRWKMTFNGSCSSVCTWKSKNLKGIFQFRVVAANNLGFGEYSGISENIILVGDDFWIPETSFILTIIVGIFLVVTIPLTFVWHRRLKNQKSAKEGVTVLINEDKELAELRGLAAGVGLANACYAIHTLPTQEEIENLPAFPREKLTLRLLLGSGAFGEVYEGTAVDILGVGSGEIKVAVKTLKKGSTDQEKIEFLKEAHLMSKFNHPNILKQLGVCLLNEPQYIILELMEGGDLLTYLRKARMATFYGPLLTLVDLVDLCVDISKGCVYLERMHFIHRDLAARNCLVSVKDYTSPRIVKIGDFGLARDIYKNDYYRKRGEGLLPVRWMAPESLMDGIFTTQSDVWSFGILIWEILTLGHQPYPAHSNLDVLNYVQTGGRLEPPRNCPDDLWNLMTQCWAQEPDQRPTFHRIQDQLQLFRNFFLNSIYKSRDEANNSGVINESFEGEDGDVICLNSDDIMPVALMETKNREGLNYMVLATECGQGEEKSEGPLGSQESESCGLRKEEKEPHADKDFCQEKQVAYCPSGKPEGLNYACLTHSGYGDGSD
Assay: Ros1 enzymatic assay
Type: biochemical
Conditions: Ros1 enzymatic assay; read-out: ROS1 pIC50 (converted)
The following compounds are listed with their measured log10(IC50) values.
# log10 transformed; quantity=IC50; unit=nM

Illustrative cases are given below, each with its answer.
Compound	Endpoint	Number
N#Cc1ccc(COc2ccc(-c3c(-c4ccncc4)nn4c3C(=O)NCC4)cc2)cc1Cl	log10(IC50)	2.80
CC(C)c1ccc(COc2ccc(-c3c(-c4ccncc4)nn4c3C(=O)N(CC3CCCO3)CC4)cc2)cc1 (centres unmarked)	log10(IC50)	2.10
CC(C)c1ccc(COc2ccc(-c3c(-c4ccncc4)nn4c3C(=O)N(CC(=O)N(C)C)CC4)cc2)cc1	log10(IC50)	1.90

State its log10(IC50): "CC(C)c1ccc(COc2ccc(-c3c(-c4ccncc4)nn4c3C(=O)NCC4)cc2)cc1CCO" 1.00

State its log10(IC50): "CC(C)c1ccc(COc2ccc(-c3c(-c4ccncc4C#N)nn4c3C(=O)NCC4)cc2)cc1" 1.60

State its log10(IC50): "CC(C)c1ccc(COc2ccc(-c3c(-c4ccncc4)nn4c3C(=O)NCC4)cc2)cc1CCN" 1.10
